# EC50 annotations
Target: α4β7 integrin (Homo sapiens, UniProt P13612+P26010)
Construct: monitoring the capture of α4β7 integrin expressing cells on a recombinant MadCAM-1 extracellular domain-coated plate; endogenous in cells; host or cells: RPMI8866 cells
Experiment: α4β7 Integrin Cell Capture Assay
Assay type: cell-based
Conditions: capture of α4β7 integrin expressing RPMI8866 cells on recombinant MadCAM-1 extracellular domain-coated plate; DMEM+0.5% FBS+0.5 mM MnCl2; read-out: EC50 α4β7
Answer with the figure and its unit, nothing else.

Known EC50 results, listed for orientation:
INSERT INTO results (compound, val) VALUES
  ('Cn1c(=O)c(-c2ccc(C[C@H](NC(=O)c3c(Cl)cccc3Cl)C(=O)O)c3ncccc23)cc2ccccc21', '5.8 nM'),
  ('COc1cc(F)c(F)cc1-c1ccc(C[C@H](NC(=O)c2c(F)cccc2F)C(=O)O)c2nccc(Cl)c12', '89.4 nM'),
  ('Cc1c(-c2ccc(C[C@H](NC(=O)c3c(F)cccc3F)C(=O)O)c3nccnc23)c(=O)n(C)c2ccc(F)cc12', '1.9 nM');

Now consider the entry below.
Identify the measured EC50 of Cc1c(-c2ccc(C[C@H](NC(=O)c3c(Cl)cccc3Cl)C(=O)O)c3ncccc23)c(=O)n(C)c2ccc(F)cc12 [Example 10] for α4β7 integrin (Homo sapiens, UniProt P13612+P26010).
1.1 nM

====

Target: α4β7 integrin (Homo sapiens, UniProt P13612+P26010)
Construct: monitoring the capture of α4β7 integrin expressing cells on a recombinant MadCAM-1 extracellular domain-coated plate; endogenous in cells; host or cells: RPMI8866 cells
Sequence (P13612 34-1032): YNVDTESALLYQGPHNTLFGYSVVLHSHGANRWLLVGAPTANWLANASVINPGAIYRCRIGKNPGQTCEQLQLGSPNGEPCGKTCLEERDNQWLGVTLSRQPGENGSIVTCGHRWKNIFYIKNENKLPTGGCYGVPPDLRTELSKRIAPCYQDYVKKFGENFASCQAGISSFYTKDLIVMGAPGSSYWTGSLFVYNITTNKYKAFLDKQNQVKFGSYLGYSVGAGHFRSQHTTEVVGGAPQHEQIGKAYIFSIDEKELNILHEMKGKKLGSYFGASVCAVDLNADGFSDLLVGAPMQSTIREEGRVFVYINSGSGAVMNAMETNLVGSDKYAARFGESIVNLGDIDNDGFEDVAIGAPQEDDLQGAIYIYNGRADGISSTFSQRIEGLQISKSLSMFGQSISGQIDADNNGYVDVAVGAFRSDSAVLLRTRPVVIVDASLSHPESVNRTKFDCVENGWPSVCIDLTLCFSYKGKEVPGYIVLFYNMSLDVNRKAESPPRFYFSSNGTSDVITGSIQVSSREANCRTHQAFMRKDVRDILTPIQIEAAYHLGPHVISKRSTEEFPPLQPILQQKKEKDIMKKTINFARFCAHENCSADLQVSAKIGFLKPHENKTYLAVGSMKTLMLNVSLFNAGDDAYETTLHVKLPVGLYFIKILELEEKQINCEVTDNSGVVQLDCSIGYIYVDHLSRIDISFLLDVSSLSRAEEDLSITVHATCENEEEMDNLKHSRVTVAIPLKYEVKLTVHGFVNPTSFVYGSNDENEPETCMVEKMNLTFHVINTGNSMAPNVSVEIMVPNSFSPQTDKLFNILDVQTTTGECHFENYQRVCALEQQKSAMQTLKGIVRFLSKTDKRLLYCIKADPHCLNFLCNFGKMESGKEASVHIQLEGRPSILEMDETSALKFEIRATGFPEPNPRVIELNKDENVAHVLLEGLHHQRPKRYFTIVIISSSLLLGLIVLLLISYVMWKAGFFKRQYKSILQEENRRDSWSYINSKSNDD
Sequence (P26010 20-798): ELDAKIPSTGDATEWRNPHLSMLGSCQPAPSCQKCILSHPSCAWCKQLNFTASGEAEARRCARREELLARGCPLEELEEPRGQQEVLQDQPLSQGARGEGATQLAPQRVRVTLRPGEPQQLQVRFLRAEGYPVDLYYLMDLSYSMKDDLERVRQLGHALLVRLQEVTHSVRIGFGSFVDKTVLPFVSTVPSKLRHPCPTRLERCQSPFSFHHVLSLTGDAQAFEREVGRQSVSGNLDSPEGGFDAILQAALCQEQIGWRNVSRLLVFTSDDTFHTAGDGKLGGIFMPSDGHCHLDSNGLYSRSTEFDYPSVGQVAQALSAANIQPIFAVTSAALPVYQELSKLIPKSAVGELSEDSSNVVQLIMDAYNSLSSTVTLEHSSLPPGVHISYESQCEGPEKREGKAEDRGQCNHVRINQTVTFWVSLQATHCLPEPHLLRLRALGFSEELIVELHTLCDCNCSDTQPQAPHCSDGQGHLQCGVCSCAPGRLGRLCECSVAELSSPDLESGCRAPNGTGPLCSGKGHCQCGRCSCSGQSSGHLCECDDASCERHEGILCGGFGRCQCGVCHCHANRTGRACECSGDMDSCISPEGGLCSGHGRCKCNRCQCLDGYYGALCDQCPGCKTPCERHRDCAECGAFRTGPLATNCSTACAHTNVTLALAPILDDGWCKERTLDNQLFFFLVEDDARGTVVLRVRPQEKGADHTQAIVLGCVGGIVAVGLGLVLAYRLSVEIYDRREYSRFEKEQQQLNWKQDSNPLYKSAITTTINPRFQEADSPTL
Assay: α4β7 Integrin Cell Capture Assay
Format: cell-based
Conditions: capture of α4β7 integrin expressing RPMI8866 cells on recombinant MadCAM-1 extracellular domain-coated plate; DMEM+0.5% FBS+0.5 mM MnCl2; read-out: EC50 α4β7
property: log10(EC50) (log10 of the value in nM)
Short version: log10 scale, EC50, nM.

INSERT INTO assay_data (compound, targetdesc, val) VALUES
  ('CC1(C)C=Cc2c(C[C@H](NC(=O)c3c(Cl)cccc3Cl)C(=O)O)ccc(-c3c(Cl)cc(F)cc3Cl)c2O1 [Example 170]', 'α4β7 integrin (Homo sapiens, UniProt P13612+P26010)', 2.31),
  ('Cn1cc(-c2ccc(C[C@H](NC(=O)c3c(F)cccc3F)C(=O)O)c3ncccc23)c(=O)n(C)c1=O [Example 80]', 'α4β7 integrin (Homo sapiens, UniProt P13612+P26010)', 1.23),
  ('COc1cc(F)c(F)cc1-c1ccc(C[C@H](NC(=O)c2c(Cl)cccc2Cl)C(=O)O)c2nccc(Cl)c12 (single isomer, unassigned) [Example 96]', 'α4β7 integrin (Homo sapiens, UniProt P13612+P26010)', 2.76),
  ('COc1cccc(OC)c1-c1ccc(C[C@H](NC(=O)c2c(F)cc(NS(=O)(=O)c3ccc(-n4cncn4)cc3)cc2F)C(=O)O)c2ccncc12 (single isomer, unassigned) [Example 164]', 'α4β7 integrin (Homo sapiens, UniProt P13612+P26010)', 0.11),
  ('Cc1cc(C(F)(F)F)c(-c2ccc(C[C@H](NC(=O)c3c(Cl)cccc3Cl)C(=O)O)c3ncccc23)c(=O)n1C (single isomer, unassigned) [Example 60]', 'α4β7 integrin (Homo sapiens, UniProt P13612+P26010)', 0.43);

// switching to the query compound
Look up log10(EC50) for this compound: Cc1c(-c2ccc(C[C@H](NC(=O)c3c(Cl)cccc3Cl)C(=O)O)c3ncccc23)c(=O)n(C)c2ccc(Cl)cc12 [Example 67]
0.40
